Cited source: patent US20250281611A1

system.tested: T1, nfP2X7 CAR 1
T1 construct: CAR-positive cells gated by the co-expressed EGFR marker; also called nfP2X7 targeted CAR; nfP2X7 CAR on EGFR+ T cells
procedure.summary: flow cytometry, anti-His-FITC, MFI on EGFR+ (CAR+) over EGFR- (CAR-) T cells
property.label: HisTag MFI Ratio of EGFR+/EGFR-
Respond numerically, and do not add a unit to the figure.

>>> observed("CD19 BRIDGE variant B19 (Fab, V domains shown) VH: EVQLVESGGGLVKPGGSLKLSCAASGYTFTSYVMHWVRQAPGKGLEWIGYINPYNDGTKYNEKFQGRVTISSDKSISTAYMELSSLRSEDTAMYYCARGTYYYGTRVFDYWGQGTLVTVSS VL: DIVMTQSPATLSLSPGERATLSCRSSKSLQNVNGNTYLYWFQQKPGQSPQLLIYRMSNLNSGVPDRFSGSGSGTEFTLTISSLEPEDFAVYYCMQHLEYPITFGAGTKLEIKR")
4.1

Memo: CD19 BRIDGE variant B13 (Fab, V domains shown) VH: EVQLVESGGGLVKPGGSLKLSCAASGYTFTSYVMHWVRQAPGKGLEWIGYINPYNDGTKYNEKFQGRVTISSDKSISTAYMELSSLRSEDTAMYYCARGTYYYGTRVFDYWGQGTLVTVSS VL: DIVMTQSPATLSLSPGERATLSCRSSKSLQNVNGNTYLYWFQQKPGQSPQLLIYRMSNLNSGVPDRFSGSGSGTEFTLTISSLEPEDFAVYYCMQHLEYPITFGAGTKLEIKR , reported HisTag MFI Ratio of EGFR+/EGFR-: 4.1

Memo: CD19 BRIDGE variant B7 (Fab, V domains shown) VH: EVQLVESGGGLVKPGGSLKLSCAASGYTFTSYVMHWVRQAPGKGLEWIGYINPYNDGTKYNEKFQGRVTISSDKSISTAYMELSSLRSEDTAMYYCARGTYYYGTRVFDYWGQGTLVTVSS VL: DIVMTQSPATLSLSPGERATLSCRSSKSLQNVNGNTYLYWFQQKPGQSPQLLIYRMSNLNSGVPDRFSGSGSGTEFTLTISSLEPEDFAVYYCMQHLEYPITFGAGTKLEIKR , reported HisTag MFI Ratio of EGFR+/EGFR-: 4
